Assayed Target: mouse ACVR2A (mouse, UniProt P27038 20-135, limits assumed); note: test concentration or dose not given here
Sequence (P27038 20-135 limits assumed): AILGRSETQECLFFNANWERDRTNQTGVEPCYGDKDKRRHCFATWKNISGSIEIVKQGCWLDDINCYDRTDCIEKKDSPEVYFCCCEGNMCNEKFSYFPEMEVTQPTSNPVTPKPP
Experimental Protocol: ELISA
Measured Property: optical density
Give the figure together with its unit, number first.

Worked examples follow.
373_G05 (antibody, V domains shown, VH/VL only) VH: EVQLLESGGGLVQPGGSLRLSCAASGFTFSSYSMNWVRQAPGKGLEWVAGINYNGGYTSYADSVKGRFTISRDNSKNTLYLQMNSLRAEDTAVYYCARSATWHDTHLDYWGQGTLVTVSS VL: DIQMTQSPSSLSASVGDRVTITCRASQSILSYLNWYQQKPGKAPKLLIYAATSLASGVPSRFSGSGSGTDFTLTISSLQPEDFATYYCQQSYELPLTFGGGTKVEIK : 3.62 OD
376_D11 (antibody, V domains shown, VH/VL only) VH: EVQLLESGGGLVQPGGSLRLSCAASGFTFSSYGMNWVRQAPGKGLEWVANINYNGGYTGYADSVKGRFTISRDNSKNTLYLQMNSLRAEDTAVYYCARSANWHDTALDYWGQGTLVTVSS VL: DIQMTQSPSSLSASVGDRVTITCRASQSILSYLNWYQQKPGKAPKLVIYAATSRASGVPSRFSGSGSGTDFTLTISSLQPEDFATYYCQQSYNNPLTFGGGTKVEIK : 3.62 OD

Exercise: Given the binder 374_H03 (antibody, V domains shown, VH/VL only) VH: EVQLLESGGGLVQPGGSLRLSCAASGFTFSSYGMNWVRQAPGKGLEWVSGINYNSGYKSYADSVKGRFTISRDNSKNTLYLQMNSLRAEDTAVYYCARSANWHDTALDYWGQGTLVTVSS VL: DIQMTQSPSSLSASVGDRVTITCRASQSILSYVNWYQQKPGKAPKLVIYAATSRASGVPSRFSGSGSGTDFTLTISSLQPEDFATYYCQQSYDSPLTFGGGTKVEIK , what is its reported optical density?
Solution: 3.27 OD
